The reported measurements were obtained from PubChem BioAssay (NCATS).

assay: BET inhibitor-based combinations targeting novel dependencies in MECOM-rearranged (r) AML: OCI-AML3 cell line (AID 2202232); details: CellTiter-Glo luminescence, 48 h; OCI-AML3 viability; series mostly up to 46 µM; further: nearly all actives have a fitted effect of over 35% in size
Results filed as inconclusive are left out. The source made the active and inactive calls. The call rests on the fitted dose curve; in most records, active means well fitted inhibition curve with a large enough effect; inconclusive means small, poorly fitted or top-dose-only effect; inactive means no such curve, though single readings can be large or run the other way.
Respond only with the outcome that fits, drawn from label 1 for active, label 0 for inactive

1) NN=C(N)N = label 0

Request: // param item: C[C@]12Cc3cn[nH]c3C[C@@H]1CC[C@@H]1[C@@H]2CC[C@@]2(C)[C@H]1CC[C@]2(C)O ; yields the recorded call
Result: label 0

Request: // param item: CCOC(=O)c1c(C(C#N)=CN)c2ccc(Cl)c(Cl)c2n1C ; yields the recorded call
Result: label 0

Request: // param item: C[C@H]1CCC/C=C/C2C[C@H](O)C[C@H]2[C@H](O)/C=C/C(=O)O1 (stereo partly specified) ; yields the recorded call
Result: label 1

Request: // param item: C/C(O)=C(\C#N)C(=O)Nc1cc(Br)ccc1Br ; yields the recorded call
Result: label 0

Request: // param item: COc1cc(C)[nH]c(=O)c1CNC(=O)c1c(C)n([C@H](C)C2CCOCC2)c2ccccc12 ; yields the recorded call
Result: label 0
